Measured growth inhibition of individual entries
Assay: NCI Yeast Anticancer Drug Screen. Data for the rad14 strain (AID 159);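 further: 0% = growth of vehicle-treated control cultures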
Settings: S. cerevisiae rad14 strain growth inhibition; at 3.7 µM; active compounds read high
Procedure: Growth inhibition of yeast strains with defined genetic alterations is measured as a screen for potential anti-cancer activity. Selected strains with alterations in DNA damage repair or cell cycle control were exposed to compounds and growth inhibition was measured relative to vehicle treated controls. The strain used in this assay is rad14
The panel holds about 79,000 compounds, 15% with a hit somewhere; the sample as a whole holds those more often.

- Compound: "O=S(=O)(CCCl)c1ccccc1Cl"
  growth inhibition [%]: 11
- Compound: "O=C(COC(=O)c1cc(O)c(O)c(O)c1)c1ccc(-c2ccccc2)cc1"
  growth inhibition [%]: 1
- Compound: "Cc1nc(-c2ccccc2)c(-c2ccccc2)s1"
  growth inhibition [%]: 10
- Compound: "COc1ccc2sc3cccc(NCCN(C)C)c3c(=O)c2c1"
  growth inhibition [%]: -1
- Compound: "O=Nc1c(NO)ccc2nn(-c3ccccc3)nc12"
  growth inhibition [%]: 31
- Compound: "OC1CSCCCSCCSCCCSC1"
  growth inhibition [%]: -37
- Compound: "O=Nc1cccnc1N=O"
  growth inhibition [%]: 36
- Compound: "Cc1cc(O)cc(O)c1N=Nc1ccc([N+](=O)[O-])cc1"
  growth inhibition [%]: -21
- Compound: "O=C(O)CNc1ccc(Cl)c(Cl)c1"
  growth inhibition [%]: -7
- Compound: "BrCc1cccc2ccc3cccc(CBr)c3c12"
  growth inhibition [%]: -2
- Compound: "CN(C)Cc1cc(N=Nc2ccc(Cl)cc2)cc(CN(C)C)c1O"
  growth inhibition [%]: 13
- Compound: "O=C1C2C(C(=O)N1c1ccc(OCc3ccccc3)cc1)C1c3ccccc3C2C2CCCCN21 (stereo not drawn)"
  growth inhibition [%]: 3
- Compound: "c1ccc2c(c1)sc1cc3ccncc3cc12"
  growth inhibition [%]: 7

---

experiment: NCI Yeast Anticancer Drug Screen. Data for the sgs1 mgt1 strain (AID 161);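 further: 0% = growth of cultures given vehicle only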; settings: S. cerevisiae sgs1 mgt1 strain, at 5.0 µM (retest, dose inferred, filed as 0.5), active compounds read high
Compounds without any hit were thinned out: in the full panel of roughly 79,000, 15% have a hit.
Measured growth inhibition of individual entries

- Molecule: "CNC(=O)OCc1c(COC(=O)NC)c(-c2ccc(-c3ccccc3)cc2)n(C)c1C"
  Units Symbol: "%"
  growth inhibition: -5
- Molecule: "O=C(O)C1OC1(c1cccc(Cl)c1)c1ccccc1Cl (configuration not stated)"
  Units Symbol: "%"
  growth inhibition: -12
- Molecule: "Fc1ccc(NC(=S)SCc2ccc3c(c2)OCO3)cc1F"
  Units Symbol: "%"
  growth inhibition: 31
- Molecule: "COc1ccc2c(c1)C(=O)c1ccccc1C2"
  Units Symbol: "%"
  growth inhibition: 19
- Molecule: "NCCNc1ccc(NCCN)c2c1C(=O)c1c(O)ccc(O)c1C2=O"
  Units Symbol: "%"
  growth inhibition: 17
- Molecule: "CC(=O)ON1C(=O)c2cccc3cccc(c23)C1=O"
  Units Symbol: "%"
  growth inhibition: 22
- Molecule: "O=C(Nc1ccccc1)OCCc1ccc(Cl)c(Cl)c1"
  Units Symbol: "%"
  growth inhibition: 8
- Molecule: "O=[N+]([O-])c1cc2no[n+]([O-])c2cc1N1CCCCC1"
  Units Symbol: "%"
  growth inhibition: 1
- Molecule: "c1ccc(-c2nc3cccnc3s2)cc1"
  Units Symbol: "%"
  growth inhibition: -5
- Molecule: "BrCC[P+](c1ccccc1)(c1ccccc1)c1ccccc1"
  Units Symbol: "%"
  growth inhibition: 49
- Molecule: "CN(C)c1nc2sc3c(c2c(=O)o1)CCCC3"
  Units Symbol: "%"
  growth inhibition: -7
- Molecule: "c1ccc2c(c1)sc1cc3ccncc3cc12"
  Units Symbol: "%"
  growth inhibition: 12
